Sourced from patent US6525059B1

biological target: human p38 kinase alpha (Homo sapiens); construct: The coding region of the human p38a cDNA was obtained by PCR-amplification from RNA isolated from the human monocyte cell line THP.1; GST (N); made in house; host or cells: E. coli DH10B; experiment: p38 kinase in vitro assay, phosphorylation of biotinylated PHAS-I with gamma 32P-ATP; assay type: biochemical; conditions: read-out: P38 alpha kinase IC50
Sequence (Q16539 whole entry): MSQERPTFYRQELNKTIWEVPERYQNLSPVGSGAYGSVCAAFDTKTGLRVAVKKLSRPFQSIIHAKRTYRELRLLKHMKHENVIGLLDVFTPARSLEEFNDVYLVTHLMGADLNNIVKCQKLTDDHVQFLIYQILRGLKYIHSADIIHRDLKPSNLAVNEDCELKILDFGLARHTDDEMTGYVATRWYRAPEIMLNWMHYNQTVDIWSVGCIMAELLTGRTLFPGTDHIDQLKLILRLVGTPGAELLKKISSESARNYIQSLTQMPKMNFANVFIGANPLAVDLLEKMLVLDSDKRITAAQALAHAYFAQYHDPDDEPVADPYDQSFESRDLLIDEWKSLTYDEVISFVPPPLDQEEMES
For each record, check the reported IC50: if it is below 500 nM write yes, else write no.

>>> category("O=C(NCc1[nH]nc(-c2ccc(F)cc2)c1-c1ccncc1)c1c(F)ccc(F)c1F")
"no"
>>> category("C[C@@H](NC(=O)c1cccc(C(F)(F)F)c1)c1[nH]nc(-c2ccc(F)cc2)c1-c1ccncc1")
"yes"
>>> category("O=C(NCc1[nH]nc(-c2ccc(F)cc2)c1-c1ccncc1)c1ccncc1")
"no"
>>> category("Cc1ccc(C)c(S(=O)(=O)NCc2[nH]nc(-c3ccc(F)cc3)c2-c2ccncc2)c1")
"yes"
>>> category("C[C@@H](NC(=O)c1cc(F)c(F)cc1F)c1[nH]nc(-c2ccc(F)cc2)c1-c1ccncc1")
"no"

State whether 500 nM exceeds IC50 recorded for "C[C@@H](NC(=O)c1cccs1)c1[nH]nc(-c2ccc(F)cc2)c1-c1ccncc1" .
yes

State whether 500 nM exceeds IC50 recorded for "C[C@@H](NC(=O)c1ccccc1I)c1[nH]nc(-c2ccc(F)cc2)c1-c1ccncc1" .
no

State whether 500 nM exceeds IC50 recorded for "Fc1ccc(-c2n[nH]c([C@@H]3CCCNC3)c2-c2ccncc2)cc1" .
yes

State whether 500 nM exceeds IC50 recorded for "COCC(=O)N1CCC(c2[nH]nc(-c3ccc(F)cc3)c2-c2ccncc2)CC1" .
no

State whether 500 nM exceeds IC50 recorded for "FC(F)(F)c1ccc(-c2n[nH]c(C3CCNCC3)c2-c2ccncc2)cc1" .
yes

State whether 500 nM exceeds IC50 recorded for "N[C@H]1CC[C@@H](c2[nH]nc(-c3ccc(F)cc3)c2-c2ccncc2)CC1" .
yes
